tested_system: human recombinant DGK ξ (Homo sapiens (Human))
assay_info: Evaluation of DGK ξ inhibitory effect (ADP-Glo Kinase Assay)
pIC50: −log10 of the molar value.
measurement_type: pIC50

[P] CN[C@@H]1CCN2CCN(c3c(NC(=O)c4csc(-c5ccnnc5)n4)ccc(Oc4ccccc4)c3C(F)(F)F)C[C@@H]12
[Q] N[C@H]1CCN2CCN(c3c(NC(=O)c4csc(-c5ccnnc5)n4)ccc(Oc4ccccc4)c3C(F)(F)F)C[C@@H]12
Could you determine which record has the numerically smaller pIC50? Candidates: P and Q Lab note: record the label of whichever item you select.
Q

[I] NC[C@@H]1CCCN(c2c(NC(=O)c3csc(-c4ccnnc4)n3)ccc(Oc3ccccc3Cl)c2C(F)(F)F)C1
[II] CNC[C@@H]1CCCN(c2c(NC(=O)c3csc(-c4ccnnc4)n3)ccc(Oc3ccccc3F)c2C(F)(F)F)C1.Cl
[III] CN(C)C[C@@H]1CN(c2c(NC(=O)c3csc(-c4ccnnc4)n3)ccc(Oc3ccccc3)c2C(F)(F)F)CCO1
Sort entries by pIC50 from minimum to maximum value. List labels; respect the requested ordering.
III, II, I
(III: 7.54, II: 8.10, I: 8.70)

[A] CNC[C@H]1CN(c2c(NC(=O)c3csc(-c4ccnnc4)n3)ccc(Oc3ccccc3)c2C(F)(F)F)CCO1
[B] NC[C@H]1CCCN(c2c(NC(=O)c3csc(-c4ccnnc4)n3)ccc(Oc3ccccc3)c2C(F)(F)F)C1
pIC50 comparison. Which is larger, A or B ? Lab note: record the label of whichever item you select.
B

---

tested_system: human recombinant DGK ξ (Homo sapiens (Human), UniProt Q13574)
Sequence (Q13574 whole entry): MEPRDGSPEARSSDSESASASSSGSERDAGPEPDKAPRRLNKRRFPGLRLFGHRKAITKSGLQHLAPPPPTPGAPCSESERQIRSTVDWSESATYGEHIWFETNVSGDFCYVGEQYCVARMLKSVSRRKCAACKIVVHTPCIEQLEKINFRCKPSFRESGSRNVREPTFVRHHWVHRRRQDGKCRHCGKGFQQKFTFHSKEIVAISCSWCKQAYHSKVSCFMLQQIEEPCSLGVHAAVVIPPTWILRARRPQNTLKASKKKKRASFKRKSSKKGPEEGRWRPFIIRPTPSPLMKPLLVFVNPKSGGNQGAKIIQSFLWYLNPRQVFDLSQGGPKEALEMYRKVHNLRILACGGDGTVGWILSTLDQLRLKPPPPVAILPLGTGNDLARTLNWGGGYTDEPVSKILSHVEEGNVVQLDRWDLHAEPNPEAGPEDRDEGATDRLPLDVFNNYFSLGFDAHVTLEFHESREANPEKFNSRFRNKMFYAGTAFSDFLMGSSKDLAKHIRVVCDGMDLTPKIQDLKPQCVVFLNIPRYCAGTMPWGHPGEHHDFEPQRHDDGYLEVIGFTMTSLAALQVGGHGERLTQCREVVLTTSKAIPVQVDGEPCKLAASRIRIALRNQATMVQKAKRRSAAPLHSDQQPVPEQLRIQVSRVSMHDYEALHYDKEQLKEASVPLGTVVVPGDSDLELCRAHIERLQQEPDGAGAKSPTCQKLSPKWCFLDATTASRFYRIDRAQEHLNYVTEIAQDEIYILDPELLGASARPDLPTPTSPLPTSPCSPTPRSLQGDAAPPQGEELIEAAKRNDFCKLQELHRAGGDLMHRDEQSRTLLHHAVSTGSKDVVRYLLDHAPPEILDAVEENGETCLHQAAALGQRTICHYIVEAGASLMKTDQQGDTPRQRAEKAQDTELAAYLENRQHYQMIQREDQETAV
assay_info: Evaluation of DGK ξ inhibitory effect (ADP-Glo Kinase Assay)
Format: biochemical
measurement_type: IC50 (µM)

[a] CN[C@@H]1CCN2CCN(c3c(NC(=O)c4csc(-c5ccnnc5)n4)ccc(OC4CC4)c3C(F)(F)F)C[C@@H]12 [Example 77]
[b] CN(C)C[C@@H]1CCCN(c2c(NC(=O)c3csc(-c4ccnnc4)n3)cc(F)c(Oc3ccccc3)c2F)C1 [Example 57]
[c] NC[C@@H]1CCCN(c2c(NC(=O)c3csc(-c4ccnnc4)n3)ccc(Nc3ccccc3)c2C(F)(F)F)C1 [Example 18]
[d] NC[C@@H]1CCCN(c2c(NC(=O)c3csc(-c4ccnnc4)n3)ccc(Oc3c(F)cccc3F)c2C(F)(F)F)C1 [Example 22]
Sort by IC50, descending. List labels; respect the requested ordering.
b, c, d, a
(b: 0.24 µM, c: 0.019 µM, d: 0.005 µM, a: 0.002 µM)

[a] Cn1nccc1Oc1ccc(NC(=O)c2csc(-c3ccnnc3)n2)c(N2CCC[C@@H](CN)C2)c1C(F)(F)F [Example 44]
[b] NC[C@@H]1CCCN(c2c(NC(=O)c3csc(-c4ccnnc4)n3)ccc(Oc3ccccc3)c2C(F)(F)F)C1 [Example 84]
Could you determine which record has the numerically smaller IC50? Candidates: a and b Lab note: record the label of whichever item you select.
b

---

System: MC38 cells
assay_info: Antitumor effect in syngeneic mouse model bearing mouse colon adenocarcinoma cell line MC38
Type: in vivo
condition_parameters: relative tumor growth inhibition; MC38, C57BL/6J mice, oral, 5 mg/kg, twice a day day 1-10 and once on day 11
Procedure: Test Example 3: Evaluation of Antitumor Effect in Syngeneic Mouse Model Bearing Mouse Colon Adenocarcinoma Cell Line MC38 A cell suspension liquid prepared by suspending MC38 cells (supplied from National Cancer Institute) in PBS at 4.0×10^6 cells/mL was subcutaneously inoculated into 6-week-old female mice (C57BL/6J from Charles River Laboratories Japan, Inc.) in a volume of 50 μL. […]
measurement_type: Antitumor effect (% Inhibition)
API: value field is a number in % Inhibition; no unit string.

Consider the reported Antitumor effect for these molecules:
NC[C@@H]1CCCN(c2c(NC(=O)c3csc(-c4ccnnc4)n3)ccc(Oc3cccc(F)c3)c2C(F)(F)F)C1 63
NC[C@H]1CCCN1c1c(NC(=O)c2csc(-c3ccnnc3)n2)ccc(Oc2ccccc2)c1C(F)(F)F 55
NC[C@@H]1CCCN(c2c(NC(=O)c3csc(-c4ccnnc4)n3)ccc(Oc3ccccc3)c2C(F)(F)F)C1 64

Now take the following molecule into account.
Lookup result for NC[C@@H]1CCCN(c2c(NC(=O)c3csc(-c4ccnnc4)n3)ccc(Oc3ccccc3F)c2C(F)(F)F)C1 ; measured Antitumor effect: 36

---

tested_system: human recombinant DGK ξ (Homo sapiens (Human))
assay_info: Evaluation of DGK ξ inhibitory effect (ADP-Glo Kinase Assay)
measurement_type: IC50 (µM)

Consider the reported IC50 for these compounds:
compound	tested_system	measurement_type	unit_string	reading
COCCNC[C@@H]1CCCN(c2c(NC(=O)c3csc(-c4ccnnc4)n3)ccc(Oc3cccc(F)c3)c2C(F)(F)F)C1	human recombinant DGK ξ (Homo sapiens (Human))	IC50	µM	0.027
COc1c(Oc2ccccc2)ccc(NC(=O)c2csc(-c3ccnnc3)n2)c1N1CCC[C@@H](CN)C1	human recombinant DGK ξ (Homo sapiens (Human))	IC50	µM	0.005
NC[C@@H]1CCCN(c2c(NC(=O)c3csc(-c4ccnnc4)n3)ccc(Oc3ccccc3F)c2C(F)(F)F)C1 [Example 86]	human recombinant DGK ξ (Homo sapiens (Human))	IC50	µM	0.003
NC[C@@H]1CCCN(c2c(NC(=O)c3csc(-c4ccnnc4)n3)ccc(Oc3cccc(F)c3)c2C(F)(F)F)C1 [Example 85]	human recombinant DGK ξ (Homo sapiens (Human))	IC50	µM	0.015

[1] O=C(Nc1ccc(OC2CCC2)c(F)c1C1=CCN(Cc2cc[nH]n2)CC1)c1csc(-c2ccnnc2)n1
[2] CN1CCN(c2c(NC(=O)c3csc(-c4ccnnc4)n3)ccc(Oc3ccccc3)c2C(F)(F)F)C[C@@H]1CN
IC50 comparison. Which is larger, 1 or 2 ? Lab note: record the label of whichever item you select.
1
(1: 0.05 µM, 2: 0.009 µM)

---

tested_system: human recombinant DGK ξ (Homo sapiens (Human), UniProt Q13574)
assay_info: Evaluation of DGK ξ inhibitory effect (ADP-Glo Kinase Assay)
Type: biochemical
measurement_type: IC50 (nM)

Consider the reported IC50 for these molecules:
O=C(Nc1ccc(Oc2ccccc2)c(C(F)(F)F)c1N1CCCC2(CCNCC2)C1)c1csc(-c2ccnnc2)n1 23
N[C@@H]1CCN2CCN(c3c(NC(=O)c4csc(-c5ccnnc5)n4)ccc(OC4CC4)c3C(F)(F)F)C[C@@H]12 6

[A] Cn1ccc(Oc2ccc(NC(=O)c3csc(-c4ccnnc4)n3)c(N3CCC[C@@H](CN)C3)c2C(F)(F)F)n1
[B] CN1CCC2(CC1)CN(c1c(NC(=O)c3csc(-c4ccnnc4)n3)ccc(Oc3ccccc3)c1C(F)(F)F)CCO2
[C] NC[C@@H]1CCCN(c2c(NC(=O)c3csc(-c4ccnnc4)n3)ccc(Oc3ccccn3)c2C(F)(F)F)C1
Sort entries by IC50 from minimum to maximum value. List labels; respect the requested ordering.
B, C, A
(B: 3 nM, C: 7 nM, A: 13 nM)

---

tested_system: human recombinant DGK ξ (Homo sapiens (Human))
assay_info: Evaluation of DGK ξ inhibitory effect (ADP-Glo Kinase Assay)
pIC50: −log10 of the molar value. Where a name gives a salt, the structure may show the parent alone.
measurement_type: pIC50

molecule	reading
CN(C)C[C@H]1CCCN(c2c(NC(=O)c3csc(-c4ccnnc4)n3)ccc(Oc3ccccc3)c2C(F)(F)F)C1 [Example 54, dihydrochloride]	7.77

[1] CNC[C@H]1CCCN(c2c(NC(=O)c3csc(-c4ccnnc4)n3)ccc(Oc3ccccc3)c2C(F)(F)F)C1
[2] O=C(Nc1ccc(Oc2ccccc2F)c(C(F)(F)F)c1N1CCC[C@@H]1CNC1COC1)c1csc(-c2ccnnc2)n1
Could you determine which record has the numerically smaller pIC50? Candidates: 1 and 2 Lab note: record the label of whichever item you select.
2

---

tested_system: human recombinant DGK ξ (Homo sapiens (Human), UniProt Q13574)
assay_info: Evaluation of DGK ξ inhibitory effect (ADP-Glo Kinase Assay)
measurement_type: IC50 (nM)

Consider the reported IC50 for these compounds:
compound	tested_system	measurement_type	reading
CCNC[C@@H]1CCCN(c2c(NC(=O)c3csc(-c4ccnnc4)n3)ccc(Oc3cccc(F)c3)c2C(F)(F)F)C1 [Example 52]	human recombinant DGK ξ (Homo sapiens (Human), UniProt Q13574)	IC50	23
O=C(Nc1ccc(Oc2ccccc2)c(C(F)(F)F)c1N1CCOC2(CCN(C3COC3)CC2)C1)c1csc(-c2ccnnc2)n1 [Example 62]	human recombinant DGK ξ (Homo sapiens (Human), UniProt Q13574)	IC50	10
Cc1c(OC2CC2)ccc(NC(=O)c2csc(-c3ccnnc3)n2)c1N1CCC[C@@H](CN)C1 [Example 71]	human recombinant DGK ξ (Homo sapiens (Human), UniProt Q13574)	IC50	44
NC[C@H]1CN(c2c(NC(=O)c3csc(-c4ccnnc4)n3)ccc(Oc3ccccc3)c2C(F)(F)F)CCO1 [Example 27]	human recombinant DGK ξ (Homo sapiens (Human), UniProt Q13574)	IC50	90

[1] NCC[C@@H]1CCCN(c2c(NC(=O)c3csc(-c4ccnnc4)n3)ccc(Oc3ccccc3)c2C(F)(F)F)C1 [Example 7]
[2] N[C@@H]1CCN2CCN(c3c(NC(=O)c4csc(-c5ccnnc5)n4)ccc(Oc4ccccc4)c3C(F)(F)F)C[C@H]12 [Example 79]
[3] NC[C@@H]1CCCN(c2c(NC(=O)c3csc(-c4ccnnc4)n3)ccc(OC3CC3)c2C(F)(F)F)C1 [Example 13]
Falling order of IC50, please. List labels; respect the requested ordering.
1, 2, 3

Attribution: patent US12227517B2
